Data credit: PubChem BioAssay (NCI)

System: ACHN renal
experiment-summary: NCI tumour cell line growth inhibition, 48 h
Would you mind telling me the reported TGI of each entry?
Answers are plain numbers, in µM.

Provide only the value of recorded TGI for C=CCCCCCCCCCCCC1CCC(CC)N1 (configuration not stated)
31.1

Provide TGI value for the following compound: S=C(Nc1ccc(-c2nc3ccccc3[nH]2)cc1)NC1CCCCC1
42.2

Name the recorded TGI of the compound listed here: Nc1c(C(=O)c2ccccc2)sc2nc(-c3cccs3)ccc12
13.3

Please look at the items below and tell me TGI for each one, in order.
1. O=C(Oc1ccc(O)c2c(=O)n3c(cc12)[nH]c1ccccc13)c1ccccc1
2. CC[N+](CC)=c1ccc2nc3c(cc(N)c4ccccc43)oc-2c1

1. 23.6
2. 1.72

----------
Tested on: UACC-257 melanoma
experiment-summary: NCI tumour cell line growth inhibition, 48 h
Kindly state TGI for each of the entries shown.

Below, 5 compounds whose answers are already recorded.
Answer with the recorded TGI for the compound listed here: O=[As](O)(O)c1cc(N=Nc2ccc(-c3ccc(N=Nc4cc([As](=O)(O)O)c(O)cc4O)cc3)cc2)c(O)cc1O
> 100 µM

Please report the measured TGI for CC1CC(c2ccccc2)=Nc2ccccc2S1(=O)=O (stereo not given)
23.8 µM

Give the measured TGI for O=[N+]([O-])c1c(/C=N/Nc2ccccc2)oc(-c2ccc3c(c2)OCO3)c1-c1ccc2c(c1)OCO2
> 100 µM

Hello, please tell me recorded TGI for this one: O=C1NC(N/N=C\c2ccccc2)=N/C1=C/c1ccc(Cl)cc1
> 100 µM

Report TGI for CC1=CSC2=NC(c3ccc(Cl)c(Cl)c3)=CC(c3ccc(Cl)cc3)N12 (stereo not given)
> 100 µM

Quick batch: TGI for everything below.
1. CC1(C)C(=O)N(c2ccccc2)C(=O)N1c1nc2ccccc2[nH]1
2. COc1ccc(-c2c(C3=NCCN3)nnn2-c2ccccc2)cc1
3. COc1cc(C2c3cc4c(cc3[C@@H](Nc3ccc(C(=O)O)cc3)C3COC(=O)[C@H]23)OCO4)cc(OC)c1O (stereo not given in full)
4. COC(=O)CCC/C=C\C[C@H]1C=CC(=O)/C1=C/C[C@@H](O)CCc1cccc(C(F)(F)F)c1
5. Cc1cc2c(CC(=O)O)[nH]nc2c(C(=O)O)c1C
6. CCCCCCNC(=O)C1=C(C)NC(C)=C(C(=O)NCCCCCC)C1

["> 100 µM", "> 100 µM", "> 100 µM", "7.49 µM", "> 100 µM", "> 100 µM"]

Respectfully, I request TGI for each entry included below.
1. O=C(Nc1ccccc1C(F)(F)F)c1cccc(NC2=C(Cl)C(=O)N(Cc3ccccc3)C2=O)c1
2. CC(=O)O[C@H]1C(N(C)C(=O)c2ccccc2)CC[C@]2(C)C3CC[C@@]4(C)C(CC(O)[C@@H]4C(C)N(C)C)[C@@H]3CCC12 (stereo not given in full)
3. O=C(NCCNCCO)N/N=C/c1ccc(Cl)cc1
4. CCCCN(c1ccccc1)c1ncnc2c1cnn2C
5. O=C1C=C(c2c(O)ccc3ccccc23)c2ccccc2C1=O
6. COC(=O)C(COC(=O)/C=C/c1ccc(OC(C)=O)c(OC(C)=O)c1)OC(=O)/C=C/c1ccc(OC(C)=O)c(OC(C)=O)c1 (stereo not given)

1: 70.1 µM; 2: > 100 µM; 3: > 100 µM; 4: 95.8 µM; 5: 6.49 µM; 6: 29.9 µM

Give TGI for all compounds that follow.
1. O=C(C(O)c1cn(Cc2ccccc2)c2ccccc12)N1CCCCC1 (stereo not given)
2. CCOC(=O)[C@@H](C)C[C@H](Cc1ccccc1)NC(=O)c1csc([C@@H](C[C@H](C(C)C)N(C)C(=O)[C@@H](NC(=O)[C@H]2C[C@H](O[Si](C)(C)C(C)(C)C)CCN2C)C(C)C)OC(C)=O)n1
3. COc1cccc(-c2nc3sccn3c2-c2ccnc(NCCNC(=O)Nc3cccc(C(F)(F)F)c3)n2)c1
4. CC(C)(C)OC(=O)N1C(OP(=O)(Oc2ccccc2)Oc2ccccc2)=COc2cccnc21
5. O=C(Nc1ccccc1)c1ccc(Cl)c([N+](=O)[O-])c1
6. COc1cc(OC2OC(C)C(O)C(O)C2O)cc2oc(-c3ccc(O)cc3)c(CC=C(C)C)c(=O)c12 (stereo not given)
7. Cc1nn(C(=O)c2ccccc2O)c2c1C(c1ccccc1)SC(N)=N2 (stereo not given)

1. > 100 µM
2. > 8.33 µM
3. 16.5 µM
4. > 100 µM
5. 48.4 µM
6. 68.4 µM
7. > 10 µM

Provide reported TGI for each item, in the same order as listed.
1. S=C(Nc1ccc(-c2nc3ccccc3[nH]2)cc1)NC1CCCCC1
2. O=C(/C=C/c1ccc([N+](=O)[O-])cc1)c1nc2ccccc2[nH]1
3. Clc1nc(Oc2ccccc2)nc(-c2cn(-c3ccccc3)c3ccccc23)n1
4. Cc1[nH]c(-c2ccccc2)c(-c2ccc(Cl)cc2)c1C(=O)ONC(=O)c1ccccc1
5. COc1cc(C2C3=C(COC3=O)OC(C)(C)Oc3cc4c(cc32)OCO4)cc(OC)c1OC (stereo not given)
6. COC(=O)c1cncc2c1CC1C3(C(=O)OC)C=NC(C4C(CO)=CCC43)C21C (stereo not given)
7. CCOC(=O)C(Cc1ccccc1)(Cc1ccc(O)cn1)NC(=O)c1ccccc1 (stereo not given)
8. Nc1nc(-c2cccc([N+](=O)[O-])c2)c(Br)c(=O)[nH]1

1: 57.1 µM; 2: 31.4 µM; 3: 25 µM; 4: 20.8 µM; 5: > 100 µM; 6: > 100 µM; 7: 95 µM; 8: > 71.4 µM
